# experimental-context: in n-hexanol, 318.85 K
experimental-readout: solubility (mole fraction)
Give only the figure.

Q: Need solubility (mole fraction) of C=CC(=O)NC(C)(C)CC(C)=O , thanks.
A: 0.82

----------
# experimental-context: in n-pentanol, 283.15 K
experimental-readout: solubility (mole fraction)
// no unit string in output, number only

Q: Look at this compound and give its reported solubility (mole fraction). C=CC(=O)NC(C)(C)CC(C)=O
A: 0.229

----------
# experimental-context: in methyl acetate, 303.25 K
experimental-readout: solubility (mole fraction)
Reply briefly: the number, and no unit.

Q: Entry under review: C=CC(=O)NC(C)(C)CC(C)=O . Reported solubility (mole fraction)?
A: 0.526
